Origin of values: patent US7888504B2

Below, each of the compounds is paired with its reported EC50 value.
# MEASURED TARGET: Human Glucokinase (Homo sapiens, UniProt P35557)
# Construct: Full-length human hepatic GK (untagged)
# Sequence (P35557 1-466 isoform P35557-2): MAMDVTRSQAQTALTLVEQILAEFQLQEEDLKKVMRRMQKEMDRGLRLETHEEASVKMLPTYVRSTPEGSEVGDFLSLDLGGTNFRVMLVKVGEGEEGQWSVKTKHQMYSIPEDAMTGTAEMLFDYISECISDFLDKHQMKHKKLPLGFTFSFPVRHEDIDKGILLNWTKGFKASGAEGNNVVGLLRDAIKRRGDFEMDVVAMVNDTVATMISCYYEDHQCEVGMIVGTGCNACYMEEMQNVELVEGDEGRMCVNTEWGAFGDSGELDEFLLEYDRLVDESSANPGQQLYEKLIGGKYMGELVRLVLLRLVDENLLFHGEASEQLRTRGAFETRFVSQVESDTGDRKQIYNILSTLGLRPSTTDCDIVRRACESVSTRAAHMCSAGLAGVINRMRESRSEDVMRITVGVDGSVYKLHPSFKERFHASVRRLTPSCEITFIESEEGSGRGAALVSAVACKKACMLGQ
# TEST PROTOCOL: tandem Glucokinase activation assay (uncoupled)
# DETAILS: 12 mM glucose; human full-length GK 15 nM
Returns: string containing the number followed by the unit.

| COMPOUND | MEASURED TARGET | RESULT |
| --- | --- | --- |
| CS(=O)(=O)c1ccc([C@@H](CC2CCCC2)C(=O)Nc2ncc(Oc3cccc(C(N)=O)c3)s2)cc1 [Example 21] | Human Glucokinase (Homo sapiens, UniProt P35557) | 858 nM |
| O=C(Nc1ncc(Oc2cccc(C(=O)N3CC(O)C3)c2)s1)[C@H](CC1CCOCC1)c1ccc(S(=O)(=O)C2CC2)cc1 [Example 19] | Human Glucokinase (Homo sapiens, UniProt P35557) | 38 nM |
| CS(=O)(=O)c1ccc([C@@H](CC2CCCC2)C(=O)Nc2ncc(Oc3ccc(C#N)cc3)s2)cc1 [Example 20] | Human Glucokinase (Homo sapiens, UniProt P35557) | 8700 nM |
| CS(=O)(=O)c1ccc([C@@H](CC2CCCC2)C(=O)Nc2ncc(Oc3ccccc3C(N)=O)s2)cc1 [Example 24] | Human Glucokinase (Homo sapiens, UniProt P35557) | 3960 nM |

Ask | Give the measured EC50 of O=C(Nc1ncc(Oc2cccc(C(=O)N3CCC3)c2)s1)[C@H](CC1CCOCC1)c1ccc(S(=O)(=O)C2CC2)cc1 [Example 18] .
Reply | 39 nM

Ask | And the next one, CS(=O)(=O)c1ccc([C@@H](CC2CCCC2)C(=O)Nc2ncc(Oc3cncc(C(=O)O)c3)s2)cc1 [Example 8] ?
Reply | 753 nM
